Each entry below carries its reported inhibition at 1 µM.
Biological target: SMARCA4-HiBiT HeLa cells (protein which is expressed from the SMARCA4 gene) (Homo sapiens, UniProt P51532)
Construct: protein which is expressed from the SMARCA2 and SMARCA4 genes; host or cells: HeLa (SMARCA4-HiBiT engineered line)
Sequence (P51532 whole entry): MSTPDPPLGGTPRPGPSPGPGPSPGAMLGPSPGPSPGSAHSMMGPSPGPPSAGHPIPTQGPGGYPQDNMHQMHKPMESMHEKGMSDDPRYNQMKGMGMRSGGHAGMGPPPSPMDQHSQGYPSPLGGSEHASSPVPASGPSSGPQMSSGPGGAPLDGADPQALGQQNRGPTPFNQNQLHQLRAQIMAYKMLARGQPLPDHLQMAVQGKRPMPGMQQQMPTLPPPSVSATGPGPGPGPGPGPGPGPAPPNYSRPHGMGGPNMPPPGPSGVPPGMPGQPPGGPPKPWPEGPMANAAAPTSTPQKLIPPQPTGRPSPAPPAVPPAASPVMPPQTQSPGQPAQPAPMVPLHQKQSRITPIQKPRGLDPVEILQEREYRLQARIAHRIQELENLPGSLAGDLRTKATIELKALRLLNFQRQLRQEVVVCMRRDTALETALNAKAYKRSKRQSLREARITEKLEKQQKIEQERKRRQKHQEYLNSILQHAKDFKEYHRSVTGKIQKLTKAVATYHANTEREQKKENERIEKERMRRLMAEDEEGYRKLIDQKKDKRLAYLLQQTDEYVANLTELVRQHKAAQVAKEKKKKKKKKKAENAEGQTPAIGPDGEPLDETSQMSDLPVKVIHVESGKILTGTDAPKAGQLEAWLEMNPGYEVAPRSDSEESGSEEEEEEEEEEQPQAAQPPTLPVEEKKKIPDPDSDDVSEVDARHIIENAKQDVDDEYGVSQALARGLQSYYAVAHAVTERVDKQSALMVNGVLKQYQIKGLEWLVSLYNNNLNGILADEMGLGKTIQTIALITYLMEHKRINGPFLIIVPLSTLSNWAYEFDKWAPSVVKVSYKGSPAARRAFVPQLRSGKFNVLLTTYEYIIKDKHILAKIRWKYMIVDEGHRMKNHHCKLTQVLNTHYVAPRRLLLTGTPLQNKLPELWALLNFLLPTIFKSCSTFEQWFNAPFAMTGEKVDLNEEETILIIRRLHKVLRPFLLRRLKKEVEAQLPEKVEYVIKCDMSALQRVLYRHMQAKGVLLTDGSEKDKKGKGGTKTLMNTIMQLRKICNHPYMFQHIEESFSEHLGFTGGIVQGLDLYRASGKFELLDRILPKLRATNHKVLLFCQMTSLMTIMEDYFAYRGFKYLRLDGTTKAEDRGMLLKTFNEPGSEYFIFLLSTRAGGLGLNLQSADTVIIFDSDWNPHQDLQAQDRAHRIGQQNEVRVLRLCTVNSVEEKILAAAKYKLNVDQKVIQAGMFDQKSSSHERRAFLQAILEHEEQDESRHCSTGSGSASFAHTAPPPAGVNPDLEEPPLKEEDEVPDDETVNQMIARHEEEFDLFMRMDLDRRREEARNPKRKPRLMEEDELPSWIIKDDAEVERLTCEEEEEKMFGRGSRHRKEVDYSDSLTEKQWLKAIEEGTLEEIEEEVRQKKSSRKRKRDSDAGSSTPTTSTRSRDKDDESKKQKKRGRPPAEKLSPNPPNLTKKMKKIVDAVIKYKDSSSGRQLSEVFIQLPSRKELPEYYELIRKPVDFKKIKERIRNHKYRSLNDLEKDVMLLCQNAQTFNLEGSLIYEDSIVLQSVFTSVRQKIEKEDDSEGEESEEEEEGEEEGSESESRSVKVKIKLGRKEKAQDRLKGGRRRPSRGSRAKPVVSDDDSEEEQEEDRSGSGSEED
Assay: SMARCA4 degradation assay (HiBiT-fusion HeLa cell line, 24 h, luminescence)
Assay type: cell-based
Settings: @ 1 μM

>  <MOLECULE>
Cc1nn2ccn(CC#Cc3nccc(N4CCN(c5cc(-c6ccccc6O)nnc5N)CC4)n3)c(=O)c2c1C

>  <MEASURE NAME>
inhibition at 1 µM

>  <RESULT>
30 to 70%

$$$$
>  <MOLECULE>
C[C@@H]1CCN(c2cc(-c3ccccc3O)nnc2N)CCN1c1ccnc(/C=C/CN2CCC2)n1

>  <MEASURE NAME>
inhibition at 1 µM

>  <RESULT>
> 70%

$$$$
>  <MOLECULE>
Nc1nnc(-c2ccccc2O)cc1N1CCCN(c2ccnc(C#CCO)n2)CC1

>  <MEASURE NAME>
inhibition at 1 µM

>  <RESULT>
30 to 70%

$$$$
>  <MOLECULE>
Nc1nnc(-c2ccccc2O)cc1N1CCN(c2ccnc(C#CCNC(=O)c3ccc4ccccc4n3)n2)CC1

>  <MEASURE NAME>
inhibition at 1 µM

>  <RESULT>
30 to 70%

$$$$
>  <MOLECULE>
Nc1nnc(-c2ccccc2O)cc1N1CCCN(c2ccnc(C#CCNc3nc4ccccc4o3)n2)CC1

>  <MEASURE NAME>
inhibition at 1 µM

>  <RESULT>
> 70%

$$$$
>  <MOLECULE>
Nc1nnc(-c2ccccc2O)cc1N1CC2CCC(C1)N2c1ccnc(C#CCn2ccnc2)n1

>  <MEASURE NAME>
inhibition at 1 µM

>  <RESULT>
< 30%

$$$$

**Query** What does the record list as inhibition at 1 µM for `CN(C)CC#Cc1nccc(N2C3CC2CN(c2cc(-c4ccccc4O)nnc2N)C3)n1` ?
**Result** > 70%

**Query** Next entry: `C[C@H]1CCN(c2cc(-c3ccccc3O)nnc2N)CCN1c1ccnc(C#CCN(C)CC(F)(F)F)n1`
**Result** < 30%

**Query** Next entry: `C[C@@H]1CCN(c2cc(-c3ccccc3O)nnc2N)CCN1c1ccnc(C#CCN2CC3CC2(C)C3)n1`
**Result** 30 to 70%

**Query** Next entry: `C[C@@H]1CCN(c2cc(-c3ccccc3O)nnc2N)CCN1c1ccnc(C#CCN2CC3(CCC3(F)F)C2)n1`
**Result** 30 to 70%

**Query** Next entry: `Nc1nnc(-c2ccccc2O)cc1N1CC2CCC(C1)N2c1ccnc(C#CCn2cncn2)n1`
**Result** 30 to 70%

**Query** Next entry: COCC1CN(CC#Cc2nccc(N3CCN(c4cc(-c5ccccc5O)nnc4N)CC[C@H]3C)n2)CCO1 (stereo partly drawn)
**Result** 30 to 70%

**Query** Next entry: `CC(C)NC(=O)NCC#Cc1nccc(N2CCCN(c3cc(-c4ccccc4O)nnc3N)CC2)n1`
**Result** 30 to 70%

**Query** Next entry: `CC[C@H](C)NCC#Cc1nccc(N2CCCN(c3cc(-c4ccccc4O)nnc3N)CC2)n1`
**Result** 30 to 70%

**Query** Next entry: `Nc1nnc(-c2ccccc2O)cc1N1CCCN(c2ccnc(C#CCNC(=O)NC3CC3)n2)CC1`
**Result** < 30%

**Query** Next entry: `Nc1nnc(-c2ccccc2O)cc1N1CCCN(c2ccnc(C#Cc3cccc4nccn34)n2)CC1`
**Result** < 30%
